Parameter: self-cleavage kobs at 10000 uM GlcN6P. Scope: all listed entries.
B1: glmS ribozyme (parent)
chain: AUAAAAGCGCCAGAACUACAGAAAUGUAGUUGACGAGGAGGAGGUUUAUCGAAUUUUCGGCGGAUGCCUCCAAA

Variants of: B1
Assay: self-cleavage kobs at 10000 uM GlcN6P; higher = faster cleavage; RNA array
Details: with glucosamine-6-phosphate
Variants at the floor of the assay were thinned out.

>  <Mutation Id>
A6U C34A

>  <Output Unit>
s⁻¹

>  <Modifier Sign>
<

>  <self-cleavage kobs at 10000 uM GlcN6P>
1e-05

$$$$
>  <Mutation Id>
U45A U46C

>  <Output Unit>
s⁻¹

>  <Modifier Sign>
=

>  <self-cleavage kobs at 10000 uM GlcN6P>
0.0365

$$$$
>  <Mutation Id>
U30C C70A

>  <Output Unit>
s⁻¹

>  <Modifier Sign>
=

>  <self-cleavage kobs at 10000 uM GlcN6P>
4.43e-05

$$$$
>  <Mutation Id>
A42C U49C U57A

>  <Output Unit>
s⁻¹

>  <Modifier Sign>
<

>  <self-cleavage kobs at 10000 uM GlcN6P>
1e-05

$$$$
>  <Mutation Id>
U45G U46G

>  <Output Unit>
s⁻¹

>  <Modifier Sign>
=

>  <self-cleavage kobs at 10000 uM GlcN6P>
0.00523

$$$$
>  <Mutation Id>
A48C C50A

>  <Output Unit>
s⁻¹

>  <Modifier Sign>
<

>  <self-cleavage kobs at 10000 uM GlcN6P>
1e-05

$$$$
>  <Mutation Id>
A15C U31C A33G G38A

>  <Output Unit>
s⁻¹

>  <Modifier Sign>
<

>  <self-cleavage kobs at 10000 uM GlcN6P>
1e-05

$$$$
>  <Mutation Id>
G13C U31C G32U U65G C67U

>  <Output Unit>
s⁻¹

>  <Modifier Sign>
=

>  <self-cleavage kobs at 10000 uM GlcN6P>
5.26e-05

$$$$
>  <Mutation Id>
C8G C50U

>  <Output Unit>
s⁻¹

>  <Modifier Sign>
<

>  <self-cleavage kobs at 10000 uM GlcN6P>
1e-05

$$$$
>  <Mutation Id>
G7U C11U C16A U45A G51A G60C

>  <Output Unit>
s⁻¹

>  <Modifier Sign>
<

>  <self-cleavage kobs at 10000 uM GlcN6P>
1e-05

$$$$
>  <Mutation Id>
G35A A48C U54A C70A

>  <Output Unit>
s⁻¹

>  <Modifier Sign>
<

>  <self-cleavage kobs at 10000 uM GlcN6P>
1e-05

$$$$
>  <Mutation Id>
G13U U56A C67U

>  <Output Unit>
s⁻¹

>  <Modifier Sign>
=

>  <self-cleavage kobs at 10000 uM GlcN6P>
0.000167

$$$$
>  <Mutation Id>
A14C A36G

>  <Output Unit>
s⁻¹

>  <Modifier Sign>
<

>  <self-cleavage kobs at 10000 uM GlcN6P>
1e-05

$$$$
>  <Mutation Id>
G43U U46A U57C C70A

>  <Output Unit>
s⁻¹

>  <Modifier Sign>
<

>  <self-cleavage kobs at 10000 uM GlcN6P>
1e-05

$$$$
>  <Mutation Id>
A52U G63C

>  <Output Unit>
s⁻¹

>  <Modifier Sign>
<

>  <self-cleavage kobs at 10000 uM GlcN6P>
1e-05

$$$$
>  <Mutation Id>
A12G A42G U47C

>  <Output Unit>
s⁻¹

>  <Modifier Sign>
=

>  <self-cleavage kobs at 10000 uM GlcN6P>
0.000197

$$$$
>  <Mutation Id>
G29C C61G C67G

>  <Output Unit>
s⁻¹

>  <Modifier Sign>
<

>  <self-cleavage kobs at 10000 uM GlcN6P>
1e-05

$$$$
>  <Mutation Id>
A52C U65A

>  <Output Unit>
s⁻¹

>  <Modifier Sign>
<

>  <self-cleavage kobs at 10000 uM GlcN6P>
1e-05

$$$$
>  <Mutation Id>
C8G C61G

>  <Output Unit>
s⁻¹

>  <Modifier Sign>
<

>  <self-cleavage kobs at 10000 uM GlcN6P>
1e-05

$$$$
>  <Mutation Id>
U30C G40A A53C C58U

>  <Output Unit>
s⁻¹

>  <Modifier Sign>
<

>  <self-cleavage kobs at 10000 uM GlcN6P>
1e-05

$$$$
>  <Mutation Id>
G9U G41U C58A G60C

>  <Output Unit>
s⁻¹

>  <Modifier Sign>
<

>  <self-cleavage kobs at 10000 uM GlcN6P>
1e-05

$$$$
>  <Mutation Id>
G9A A14G G38U

>  <Output Unit>
s⁻¹

>  <Modifier Sign>
<

>  <self-cleavage kobs at 10000 uM GlcN6P>
1e-05

$$$$
>  <Mutation Id>
G40A A42C A48G

>  <Output Unit>
s⁻¹

>  <Modifier Sign>
<

>  <self-cleavage kobs at 10000 uM GlcN6P>
1e-05

$$$$
>  <Mutation Id>
A33C A64C

>  <Output Unit>
s⁻¹

>  <Modifier Sign>
<

>  <self-cleavage kobs at 10000 uM GlcN6P>
1e-05

$$$$
>  <Mutation Id>
A42U C68A

>  <Output Unit>
s⁻¹

>  <Modifier Sign>
<

>  <self-cleavage kobs at 10000 uM GlcN6P>
1e-05

$$$$
>  <Mutation Id>
U46G C71G

>  <Output Unit>
s⁻¹

>  <Modifier Sign>
=

>  <self-cleavage kobs at 10000 uM GlcN6P>
0.000435

$$$$
>  <Mutation Id>
U45G U46C U54G

>  <Output Unit>
s⁻¹

>  <Modifier Sign>
=

>  <self-cleavage kobs at 10000 uM GlcN6P>
0.00762

$$$$
>  <Mutation Id>
G43A G51A

>  <Output Unit>
s⁻¹

>  <Modifier Sign>
<

>  <self-cleavage kobs at 10000 uM GlcN6P>
1e-05

$$$$
>  <Mutation Id>
G13C G40U A53U G59U

>  <Output Unit>
s⁻¹

>  <Modifier Sign>
<

>  <self-cleavage kobs at 10000 uM GlcN6P>
1e-05

$$$$
>  <Mutation Id>
G32U G40A

>  <Output Unit>
s⁻¹

>  <Modifier Sign>
=

>  <self-cleavage kobs at 10000 uM GlcN6P>
0.000267

$$$$
>  <Mutation Id>
A14G G66U

>  <Output Unit>
s⁻¹

>  <Modifier Sign>
=

>  <self-cleavage kobs at 10000 uM GlcN6P>
0.00464

$$$$
>  <Mutation Id>
C16G C58G

>  <Output Unit>
s⁻¹

>  <Modifier Sign>
=

>  <self-cleavage kobs at 10000 uM GlcN6P>
5.56e-05

$$$$
>  <Mutation Id>
A14U G35C

>  <Output Unit>
s⁻¹

>  <Modifier Sign>
<

>  <self-cleavage kobs at 10000 uM GlcN6P>
1e-05

$$$$
>  <Mutation Id>
G35U U65G

>  <Output Unit>
s⁻¹

>  <Modifier Sign>
<

>  <self-cleavage kobs at 10000 uM GlcN6P>
1e-05

$$$$
>  <Mutation Id>
C16U U56G

>  <Output Unit>
s⁻¹

>  <Modifier Sign>
=

>  <self-cleavage kobs at 10000 uM GlcN6P>
0.0241

$$$$
>  <Mutation Id>
U31C C50G G63A

>  <Output Unit>
s⁻¹

>  <Modifier Sign>
=

>  <self-cleavage kobs at 10000 uM GlcN6P>
3.51e-05

$$$$
>  <Mutation Id>
A6C A52U U54A U55C

>  <Output Unit>
s⁻¹

>  <Modifier Sign>
<

>  <self-cleavage kobs at 10000 uM GlcN6P>
1e-05

$$$$
>  <Mutation Id>
U46C U49G

>  <Output Unit>
s⁻¹

>  <Modifier Sign>
=

>  <self-cleavage kobs at 10000 uM GlcN6P>
9.78e-05

$$$$
>  <Mutation Id>
A14C G32U

>  <Output Unit>
s⁻¹

>  <Modifier Sign>
=

>  <self-cleavage kobs at 10000 uM GlcN6P>
0.00103

$$$$
>  <Mutation Id>
A6C U56A

>  <Output Unit>
s⁻¹

>  <Modifier Sign>
=

>  <self-cleavage kobs at 10000 uM GlcN6P>
3.34e-05

$$$$
>  <Mutation Id>
G44U

>  <Output Unit>
s⁻¹

>  <Modifier Sign>
=

>  <self-cleavage kobs at 10000 uM GlcN6P>
0.000335

$$$$
>  <Mutation Id>
U55A U56A

>  <Output Unit>
s⁻¹

>  <Modifier Sign>
=

>  <self-cleavage kobs at 10000 uM GlcN6P>
0.0126

$$$$
>  <Mutation Id>
G40A U49G

>  <Output Unit>
s⁻¹

>  <Modifier Sign>
=

>  <self-cleavage kobs at 10000 uM GlcN6P>
0.000108

$$$$
>  <Mutation Id>
A42U U69A

>  <Output Unit>
s⁻¹

>  <Modifier Sign>
=

>  <self-cleavage kobs at 10000 uM GlcN6P>
0.101

$$$$
>  <Mutation Id>
C16A G40U A48U

>  <Output Unit>
s⁻¹

>  <Modifier Sign>
<

>  <self-cleavage kobs at 10000 uM GlcN6P>
1e-05

$$$$
>  <Mutation Id>
G41C U45A

>  <Output Unit>
s⁻¹

>  <Modifier Sign>
=

>  <self-cleavage kobs at 10000 uM GlcN6P>
0.000108

$$$$
